Every entry's value here was drawn from paper PMC9482650.

assaySystem: GORASP1, Q9BQQ3
Sequence (Q9BQQ3 1-208): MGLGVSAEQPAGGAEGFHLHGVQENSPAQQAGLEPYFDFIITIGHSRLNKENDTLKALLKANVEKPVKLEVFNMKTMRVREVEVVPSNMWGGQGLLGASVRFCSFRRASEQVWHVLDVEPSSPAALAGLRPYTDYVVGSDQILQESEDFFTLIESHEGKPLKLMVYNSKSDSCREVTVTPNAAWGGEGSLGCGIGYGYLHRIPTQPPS
runDescription: holdup assay
Design: key: below the threshold = too weak to quantify, mostly under pKd 3.1 to 4
testConditions: plain residues with an end cap or a label only (N-terminal biotin on a linker: ttds)

# binder, pKd
records = [
    ("SEKHFRETEV [HTLV1-TAX1, P03409]", "below the threshold"),
    ("PKRPFVESNV [TANC2, Q9HCD6]", "below the threshold"),
    ("LCALPKVTTV [AGMAT, Q9BSE5]", 4.11),
    ("RTRQRNETQV [HPV51-E6, P26554]", "below the threshold"),
]
